Test system: SNB-75 CNS
Assay: NCI-60 one-dose screen, 48 h
Conditions: 10 µM unless noted
Procedure: Growth inhibition of the SNB-75 human tumor cell line is measured as a screen for anti-cancer activity. Cells are grown in 96 well plates and exposed to the test compound for 48 hours. Compounds are tested at a single concentration, which is 10^-5 M for most compounds. The reported endpoint is percent growth (GI% or GIPRCNT), where numbers from 0 - 100% represent growth inhibition, and numbers from -100% - 0 represent cell death. For example, a value of 40 represents 60% growth inhibition. […]
Compounds without any hit were thinned out: in the full panel of roughly 83,000, 20% have a hit. The source made the active and inactive calls. How the source made its calls: active means growth percent below 10; inactive means the rest.
A correct response names exactly one class from Y = active, N = inactive

Examples from the recorded data:
INSERT INTO assay_data (compound, class_name) VALUES
  ('Cc1c(Cl)cccc1NS(=O)(=O)c1ccccc1', 'N'),
  ('COc1cc2c(cc1OC)-c1ccc3cc4c(cc3c1N(CCN1CCCC1)C2)OCO4', 'Y'),
  ('CN1CCN(c2ccc(Nc3ncc(Cl)c(NC[C@@H]4CCCO4)n3)cc2)CC1', 'Y'),
  ('Cn1cc(-c2ccc3nc(-c4ccc(CC(=O)Nc5cc(C(C)(C)C)no5)cc4)cnc3c2)cn1', 'N'),
  ('COc1cc(NC(=O)c2cc(O)c(CC=C(C)C)c(O)c2)cc2c1O[C@]1(C)CC[C@@H](O)C(C)(C)[C@H]1C2', 'Y'),
  ('O=C(Oc1ccc([N+](=O)[O-])cc1)c1ccc(CBr)cc1', 'N'),
  ('CCOc1cc(C2C(Cl)C(=O)N2n2cnnc2)ccc1O (stereo not given)', 'N'),
  ('Clc1ccc(-c2cn(-c3ccccc3)c(-c3ccccc3)n2)cc1', 'N'),
  ('CN(C)c1ccc(/C=C/c2c(F)cccc2F)cc1', 'N'),
  ('O=C(NCc1cn(Cc2cccc(Oc3ccccc3)c2)nn1)c1cccnc1NCc1ccc(Cl)cc1', 'N');

Assay outcome for N=c1ccn2c(n1)OC1C(O)C(CO)OC12 (stereo not given) : what was it? N

What about this compound? `CCNCCNc1cc(-c2cccc(C(F)(F)F)c2)c(C#N)c2nc3ccccc3n12` Y

###

Each item that follows carries a reported growth.
Tested on: HT29 colon
Test: NCI-60 one-dose screen, 48 h (100 = growth as untreated, 0 = no growth, -100 = all killed)
Details: 10 µM unless noted
Method: Growth inhibition of the HT29 human tumor cell line is measured as a screen for anti-cancer activity. Cells are grown in 96 well plates and exposed to the test compound for 48 hours. Compounds are tested at a single concentration, which is 10^-5 M for most compounds. The reported endpoint is percent growth (GI% or GIPRCNT), where numbers from 0 - 100% represent growth inhibition, and numbers from -100% - 0 represent cell death. For example, a value of 40 represents 60% growth inhibition. […]
The panel holds about 83,000 compounds, 20% with a hit somewhere; the sample as a whole holds those more often. Active and inactive are the calls of the source. How the source made its calls: active means growth percent below 10; inactive means the rest.

Check out these entries, answers already filled in.
INSERT INTO assay_data (molecule, system_under_test, endpoint_result) VALUES
  ('CN1CCN(c2ccc3nc(/N=C/c4ccc5sc(-c6ccc([N+](=O)[O-])cc6)nc5c4)sc3c2)CC1', 'HT29 colon', '103% (inactive)'),
  ('COc1ccc(/C=N/NC(=O)Cn2c(-c3ccc(S(C)(=O)=O)cc3)nc3cc(Cl)ccc32)cc1', 'HT29 colon', '3.57% (active)'),
  ('Cc1nc2ccccc2c(/C=C/c2ccc(Cl)cc2)c1C(=O)/C=C/c1ccc(Cl)cc1', 'HT29 colon', '3.75% (active)'),
  ('O[C@H]1CO[C@H]2[C@@H]1OC[C@@H]2Oc1ccc(Nc2nc(Nc3ccc(F)c(Cl)c3)ncc2F)cc1Cl', 'HT29 colon', '111% (inactive)'),
  ('CCn1nc(C#Cc2c(C)ccc3c(Nc4ccc(Cl)cc4)nccc23)c2c(N)ncnc21', 'HT29 colon', '2.98% (active)');

Please report the recorded growth for `CCN(CC)CC(=O)Nc1cccc(C(=O)OC(C)C)c1` . 81.5% (inactive)

What do we get for `COc1ccc(/C(C)=C(\c2ccc(Cl)cc2)c2ccc(OCCN3CCCCCC3)cc2)cc1F` ? 10% (inactive)

Request: `Nc1c(C(=O)Nc2ccccc2)sc2nc3c(cc12)CCCCCC3` -9.08% (active)

`Cc1nc(Nc2ccccn2)sc1C(=O)/C=C/c1ccc(Br)cc1` ? 25.9% (inactive)

###

System: SK-MEL-5 melanoma
Assay: NCI-60 one-dose screen, 48 h (100 = growth as untreated, 0 = no growth, -100 = all killed)
Settings: 10 µM unless noted
The panel holds about 83,000 compounds, 20% with a hit somewhere; the sample as a whole holds those more often.
Measure Name: growth (%)
Answer with a number only, understood to be in %.

INSERT INTO results (compound, endpoint_result) VALUES
  ('COc1cc2oc(-c3cccc(C(=O)Nc4ccc(C#N)cc4)c3)cc(=O)c2c(O)c1OC', 70.3),
  ('COc1ccc(-c2cc(-c3ccc(Nc4nc(Nc5ccccc5)nc(Nc5ccc(Cl)cc5)n4)cc3)nc(N)n2)cc1', 60.7),
  ('CN(C)CCC(O)(Cc1ccccc1)c1ccccc1 (stereo not given)', 108),
  ('CS(=O)(=O)c1ccc(-c2nc3cc(Cl)ccc3n2CC(=O)N/N=C/c2ccc(Cl)cc2)cc1', 23.1),
  ('COc1cc(-c2cccc([N+](=O)[O-])c2)c(-c2nc(-c3ccccc3)c(-c3ccccc3)n2C2CC2)cc1OC', 52.5);

Please give the measured growth for this compound: `O=C1c2ccccc2C(=O)c2cc(Cn3cc[n+](Cc4ccc5ccccc5c4)c3)ccc21` 68.3

Try this compound too: `COc1cc(/C=C/C(=O)c2cccc(-n3cc(-c4ccc(Cl)cc4)[nH]c3=O)c2)cc(OC)c1OC` 58.2

Could you do the same for `CCCCCCNC(=O)c1cc(NCc2cc(O)ccc2O)ccc1O` , please? 90

Field entry: `N=C(N)c1ccc(-c2ccc(/C=C/c3ccccc3)s2)cc1` 81.3

`O=C(NCc1cccnc1)c1cc(-c2csc3c(=O)cc(N4CCOCC4)oc23)cc2c1OCCO2` ? 39.6

###

Here the recorded growth is given for each entry.
Test system: T-47D breast
Experiment: NCI-60 one-dose screen, 48 h (100 = growth as untreated, 0 = no growth, -100 = all killed)
Conditions: 10 µM unless noted
Method: Growth inhibition of the T-47D human tumor cell line is measured as a screen for anti-cancer activity. Cells are grown in 96 well plates and exposed to the test compound for 48 hours. Compounds are tested at a single concentration, which is 10^-5 M for most compounds. The reported endpoint is percent growth (GI% or GIPRCNT), where numbers from 0 - 100% represent growth inhibition, and numbers from -100% - 0 represent cell death. For example, a value of 40 represents 60% growth inhibition. […]
Compounds without any hit were thinned out: in the full panel of roughly 83,000, 20% have a hit.
Number only, in %; omit the unit.

Use the examples below as a reference point.
INSERT INTO measurements (molecule, endpoint_result) VALUES
  ('CC(c1ccc(-n2cccn2)cc1)c1cnc(N2CCc3ccc(C(N)=O)cc3C2)s1 (stereo not given)', 2.07),
  ('NS(=O)(=O)Oc1ccc(NC(=O)C23CC4CC(CC(C4)C2)C3)cc1Cl', 75.4),
  ('OC(c1cccc(OCc2ccccc2)c1)c1nnc(-c2ccccc2)o1 (stereo not given)', 72.9);

# query: growth of entry `CCOC(=O)c1c(C)[nH]c(C(=O)CCC(=O)OC)c1C` 101

Also `O=C(NC1CCOCC1)c1ccc2c(c1)CN(c1ncc(Cc3cccc(-n4cccn4)c3)s1)CC2` , if possible. 38.9

How about this molecule: `CCNCCNc1cc(C2CCCC2)c(C#N)c2nc3ccccc3n12` 13.8

Try `COc1ccccc1C(=O)NC(=S)Nc1ccc(-c2nc3ccccc3[nH]2)cc1` next. 80.3

Here is the next molecule: `CN1CCN(c2ccc3nc(/N=C/c4ccc5sc(-c6ccc([N+](=O)[O-])cc6)nc5c4)sc3c2)CC1` 96

// same read-out, input: Nc1ccn(C2OC(F)(CO)C(O)C2F)c(=O)n1 (stereo not given) 55.3

Check `CCCCNC(=O)c1cc(NCc2cc(O)ccc2O)ccc1O` too. 58.1

Also, `O=C(NCCN1CCC(O)CC1)c1cc2c(o1)C(=O)c1ccccc1C2=O` please. -44.6

Can you handle `c1ccc(-c2oc3ccccc3c2-c2ccccc2)cc1` next? 75.7

`O=C1c2cccc3c(-c4ccc(-c5nc6c7ccccc7c7ccccc7c6[nH]5)cc4)ccc(c23)C(=O)N1CCN1CCNCC1` , same question. 67.5

Next: `CC(=O)c1ccc2c(c1)CCN2` 105

Further, for COC1=CC(c2ccc[nH]2)=N/C1=C\c1[nH]c(C)c(C(=O)OCCn2cc(CCC[C@@H]3Cc4cc(O)ccc4C4CC[C@]5(C)[C@@H](O)CC[C@H]5C43)nn2)c1C (stereo not given in full) ? 102

Please give the result for O=C1Nc2ccccc2SC1C1SC(=S)N(Cc2ccccc2)C1=O (stereo not given) too. 24.1

Can you check `C[C@@H]1C(=O)N(C[C@H](Cc2ccccc2)NC(=O)OCc2ccccc2)[C@]1(Cc1ccccc1)C(=O)OC(C)(C)C` next? 43.3
